# Subject Of Test: NR2F6 (Homo sapiens)
# Construct: expressed in transfected cells; also transient transfection
# Test: NR2F6 agonist screening, Firefly signal cmpd/DMSO
# Format: cell-based
# Measurement Parameters: F4; 1% FBS; 10 uM
Binary call on Firefly, F4, 1% FBS, cmpd/DMSO (mean) with cut-off 4: strictly below means Y, and equality or higher means N.

Take a look at these entries with their results.
# Molecule, Subject Of Test, Category Label
rows = [
    ("O=S1(=O)C[C@H](NC2CCCCCC2)[C@@H](S(=O)(=O)c2ccc(Cl)cc2)C1", "NR2F6 (Homo sapiens)", "Y"),
    ("O=S1(=O)C[C@H](NCCc2cccs2)[C@@H](S(=O)(=O)c2ccc(Cl)cc2)C1", "NR2F6 (Homo sapiens)", "Y"),
    ("O=S1(=O)C[C@H](N2CCCCC2)[C@@H](S(=O)(=O)c2cccs2)C1", "NR2F6 (Homo sapiens)", "N"),
    ("COc1ccc(CCN[C@H]2CS(=O)(=O)C[C@@H]2S(=O)(=O)c2ccc(Cl)cc2)cc1OC", "NR2F6 (Homo sapiens)", "Y"),
    ("O=S1(=O)C[C@H](NCC2CCCO2)[C@@H](S(=O)(=O)c2cccs2)C1 (some centres unmarked)", "NR2F6 (Homo sapiens)", "Y"),
    ("CCCN[C@H]1CS(=O)(=O)C[C@@H]1S(=O)(=O)c1ccc(Cl)cc1", "NR2F6 (Homo sapiens)", "N"),
    ("O=S1(=O)C[C@H](NCc2ccncc2)[C@@H](S(=O)(=O)c2cccs2)C1", "NR2F6 (Homo sapiens)", "Y"),
]

I wonder whether `COCCCN[C@H]1CS(=O)(=O)C[C@@H]1S(=O)(=O)c1ccc(Cl)cc1` has Firefly, F4, 1% FBS, cmpd/DMSO (mean) below 4. Can you tell?
Y

---

# Subject Of Test: NR2F6 (Homo sapiens, UniProt P10588)
# Construct: expressed in transfected cells; also transient transfection
# Test: NR2F6 agonist screening, Firefly signal cmpd/DMSO
# Type: cell-based
# Measurement Parameters: Table 13; ratio of Firefly in NR2F6 stable clone F4 to pGL4
Can you tell me Firefly, NR2F6 stable (clone F4)/pGL4 for the items I'm about to list?
Answers are plain numbers.

Answered examples (2):
# Substance Smiles, Subject Of Test, Firefly, NR2F6 stable (clone F4)/pGL4
records = [
    ("Cc1ccc(NC(=O)c2ccc3oc(=O)c(S(=O)(=O)c4ccccc4)cc3c2)cc1", "NR2F6 (Homo sapiens, UniProt P10588)", 8.1),
    ("O=c1oc2ccc([N+](=O)[O-])cc2cc1S(=O)(=O)c1ccc(F)cc1", "NR2F6 (Homo sapiens, UniProt P10588)", 8.4),
]

Hey, can you go through the list below and give me Firefly, NR2F6 stable (clone F4)/pGL4 for every item?
1. Cc1ccc(S(=O)(=O)c2cc3cc(C(=O)Nc4cc(C)cc(C)c4)ccc3oc2=O)cc1
2. O=c1oc2ccc([N+](=O)[O-])cc2cc1S(=O)(=O)c1ccccc1

5.7
8.2

---

# Subject Of Test: NR2F6 (Homo sapiens)
# Construct: expressed in transfected cells; also transient transfection
# Test: NR2F6 agonist screening, Firefly signal cmpd/DMSO
# Assay type: cell-based
# Measurement Parameters: Table 15; 2 uM
Can you tell me Firefly F4, cmpd/DMSO (mean) for the items I'm about to list?
Answers are plain numbers.

Answered examples (5):
# Compound, Endpoint Result
rows = [
    ("COc1cccc(-c2noc(Cn3nccc(Cl)c3=O)n2)c1", 1.5),
    ("CCOC(=O)c1cnc2c(C)cc(C)cc2c1NCCCN1CCCC1", 1.7),
    ("CC(=O)Nc1ccc(NS(C)(=O)=O)c2nonc12", 1.0),
    ("CCOC(=O)c1cnc2c(C)cc(C)cc2c1NCCCN1CCCCC1 [Compound Z12]", 3.9),
    ("CCOC(=O)c1cnc2c(C)cc(C)cc2c1NCCCN1CCCCC1 [Compound Z19]", 1.3),
]

// moving on: another record for Firefly F4, cmpd/DMSO (mean)
Which measured Firefly F4, cmpd/DMSO (mean) value corresponds to `CC(=O)Nc1ccc(Br)c2nonc12` ?
1.2

---

# Subject Of Test: NR2F6 (Homo sapiens)
# Construct: expressed in transfected cells; also transient transfection
# Test: NR2F6 agonist screening, Firefly signal cmpd/DMSO
# Type: cell-based
# Measurement Parameters: 10 uM; F4
Value Kind: Firefly F4, cmpd/DMSO (mean)
Answers are plain numbers.

Answered examples (5):
# Compound, Firefly F4, cmpd/DMSO (mean)
data = [
    ("Cc1cccc(CN[C@H]2CS(=O)(=O)C[C@@H]2S(=O)(=O)c2ccc(Cl)cc2)c1 [Compound D127]", 2.2),
    ("CC(=O)N1CCN([C@H]2CS(=O)(=O)C[C@@H]2S(=O)(=O)c2ccc(F)c(C)c2)CC1 [Compound D116]", 1.4),
    ("CCC(C)N[C@H]1CS(=O)(=O)C[C@@H]1S(=O)(=O)c1ccc(Cl)cc1 (stereo partly shown) [Compound D121]", 4.9),
    ("CC(C)CCN[C@H]1CS(=O)(=O)C[C@@H]1S(=O)(=O)c1cccs1 [Compound D110]", 3.5),
    ("COc1ccc(CCN[C@H]2CS(=O)(=O)C[C@@H]2S(=O)(=O)c2ccc(Cl)cc2)cc1OC [Compound D129]", 4.3),
]

Hey, can you go through the list below and give me Firefly F4, cmpd/DMSO (mean) for every item?
1. Cc1cc(S(=O)(=O)[C@H]2CS(=O)(=O)C[C@@H]2NCC2CCCO2)ccc1F (stereo partly shown) [Compound D115]
2. O=S1(=O)C[C@H](N2CCCCC2)[C@@H](S(=O)(=O)c2cccs2)C1 [Compound D105]

1. 1.4
2. 5.5

Hey, can you go through the list below and give me Firefly F4, cmpd/DMSO (mean) for every item?
1. CC(C)CN[C@H]1CS(=O)(=O)C[C@@H]1S(=O)(=O)c1ccc(Cl)cc1 [Compound D120]
2. CC1CCN([C@H]2CS(=O)(=O)C[C@@H]2S(=O)(=O)c2ccc(Cl)cc2)CC1 [Compound D125]
3. O=S1(=O)C[C@H](N2CCCCC2)[C@@H](S(=O)(=O)c2ccc(Cl)cc2)C1 [Compound D123]
4. CC(=O)Nc1ccc(S(=O)(=O)[C@H]2CS(=O)(=O)C[C@@H]2NC2CC2)cc1 [Compound D133]

[5.1, 5.6, 7.1, 1.8]

Hey, can you go through the list below and give me Firefly F4, cmpd/DMSO (mean) for every item?
1. O=S1(=O)C[C@H](N2CCCC2)[C@@H](S(=O)(=O)c2ccc(Cl)cc2)C1 [Compound D122]
2. C[C@@H]1C[C@H](C)CN([C@H]2CS(=O)(=O)C[C@@H]2S(=O)(=O)c2ccccc2)C1 [Compound D112]
3. CC1CCN([C@H]2CS(=O)(=O)C[C@@H]2S(=O)(=O)c2cccs2)CC1 [Compound D106]
4. CCCN[C@H]1CS(=O)(=O)C[C@@H]1S(=O)(=O)c1ccc(Cl)cc1 [Compound D117]

1. 6.8
2. 2.8
3. 5.4
4. 4.7

Which measured Firefly F4, cmpd/DMSO (mean) value corresponds to O=S1(=O)C[C@H](NCCc2cccs2)[C@@H](S(=O)(=O)c2ccc(Cl)cc2)C1 [Compound D128] ?
2.7

---

# Subject Of Test: NR2F6 (Homo sapiens, UniProt P10588)
# Construct: expressed in transfected cells; also transient transfection
# Sequence (P10588 1-404): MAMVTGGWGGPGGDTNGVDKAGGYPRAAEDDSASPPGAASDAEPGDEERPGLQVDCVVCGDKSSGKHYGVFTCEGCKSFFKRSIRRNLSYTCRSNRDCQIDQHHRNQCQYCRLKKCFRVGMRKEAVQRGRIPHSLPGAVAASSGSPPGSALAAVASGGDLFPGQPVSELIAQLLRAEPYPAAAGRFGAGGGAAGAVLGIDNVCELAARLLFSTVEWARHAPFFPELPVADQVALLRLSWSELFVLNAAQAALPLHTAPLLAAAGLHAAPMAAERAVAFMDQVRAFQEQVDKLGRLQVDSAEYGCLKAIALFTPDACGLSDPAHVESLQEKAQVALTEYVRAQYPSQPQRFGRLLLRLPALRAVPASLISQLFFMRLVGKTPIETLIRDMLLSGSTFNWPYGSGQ
# Test: NR2F6 agonist screening, Firefly signal cmpd/DMSO
# Type: cell-based
# Set-up: unit of the concentration uncertain
# Measurement Parameters: Concentration 10 (unit uncertain); NR2F6 full length
Value Kind: Firefly NR2F6 full length, cmpd/DMSO (mean)
One number for each entry.

Answered examples (5):
# Substance Smiles, Endpoint Result
data = [
    ("Cc1cc(C)c(S(=O)(=O)NCc2nc3nc(C)cc(C)n3n2)c(C)c1", 1.5),
    ("Cc1ccc(S(=O)(=O)NCc2cn3ccccc3n2)c(C)c1", 1.1),
    ("Cc1ccc(S(=O)(=O)N(Cc2nc3nc(C)c(S)c(C)n3n2)c2ccccc2)cc1", 1.2),
    ("COc1ccc(OC)c(S(=O)(=O)NCc2nc3nc(C)cc(C)n3n2)c1", 1.0),
    ("Cc1ccc(S(=O)(=O)NCc2cn3cccc(C)c3n2)cc1C", 1.0),
]

Hey, can you go through the list below and give me Firefly NR2F6 full length, cmpd/DMSO (mean) for every item?
1. COc1ccc(Cl)cc1S(=O)(=O)NCc1nc2nc(C)cc(C)n2n1
2. Cc1cccn2cc(CNS(=O)(=O)c3ccccc3F)nc12
3. COc1ccc(S(=O)(=O)NCc2nc3nc(C)cc(C)n3n2)cc1OC

1. 0.8
2. 1.3
3. 1.2
